# ASSAY SYSTEM: apical domain of CD71 (Screen 3: 'cynomolgus apical domain of human CD71') (cynomolgus (as paragraph 454 words it; ambiguous))
# TEST METHOD NOTES: primary ELISA, RLU ratio to HSA
PROPERTY NAME: Apical domain:HSA

For orientation, consider the following solved cases.
BINDER	OBS VALUE
CD71-binding FN3 domain SEQ ID NO: 271 (designed binder) MSLPAPKNLVVSRITEDSARLSWTAPDAAFDSFEIGYWENAYKGEAIVLTVPGSERSYDLTGLKPGTEYVVFIGGVKGGVWSVPLSAIFTT	347
CD71-binding FN3 domain SEQ ID NO: 281 (designed binder) MSLPAPKNLVVSRVTEDSARLSWTAPDAAFDSFFIGYLEPQPPGEAIALYVPGSERSYDLTGLKPGTEYNVTIQGVKGGFPSEPLIANFTT	413
CD71-binding FN3 domain SEQ ID NO: 237 (designed binder) MSLPAPKNLVVSRVTEDSARLSWTAPDAAFDSFEIAYFERTWFGEAIVLTVPGSERSYDLTGLKPGTEYWVQIGGVKGGDWSKPLSAIFTT	672
CD71-binding FN3 domain SEQ ID NO: 295 (designed binder) MSLPAPKNLVVSRVTEDSARLSWTAPDAAFDSFFIGYLEPQPPGEAIDLYVPGSERSYDLTGLKPGTEYNVTIQGVKGGFPSEPLVATFTT	474
CD71-binding FN3 domain SEQ ID NO: 257 (designed binder) MSLPAPKNLVVSHVTEDSARLSWTAPDAAFDSFEIGYWENAYKGEAIVLTVPGSERSYDLTGLKPGTEYVVFIGGVKGGVWSVPLSAIFTT	687

I = CD71-binding FN3 domain SEQ ID NO: 333 (designed binder) MSLPAPENLVVSRVTEDSARLSWTAPDAAFDSFFIGYLEPQPPGEAIALYVPGSERSYDLTGLKPGTEYNVTIQGVKGGFPSLPLVATFTT
II = CD71-binding FN3 domain SEQ ID NO: 246 (designed binder) MSLPAPKNLVVSRVTEDSARLSWTAPDAAFDSFEIAYQELSLWGEAIVLTVPGSERSYDLTGLKPGTEYYVHIGGVKGGIWSSPLSAYFTT
III = CD71-binding FN3 domain SEQ ID NO: 273 (designed binder) MLPAPKNLVVSRVTEDSARLSWTAPDAAFDSFEISYWEHTFNGEAIILFVPGSERSYDLTGLKPGTEYYVTIGGVKGGAWSPPLWAEFTT
Kindly order the items shown according to Apical domain:HSA, from the highest value down. Return value: ordered labels per request. III, II, I
